assay info: Elimination half-life in Wistar rat at 1 mg/kg, iv by LC-MS/MS analysis
Format: ADME, organism-based
condition details: in vivo, read-out: beta t1/2
observed property: half-life (h)

Cc1cc(C(c2ccccc2)c2ccccc2)sc1C(=O)N[C@@H](CCCNC(=N)N)C(=O)O = 0.75
Cc1cc(C(c2ccc(Cl)cc2)c2ccc(Cl)cc2)sc1C(=O)N[C@@H](CCCNC(=N)N)C(=O)O = 3.18

====

assay info: Stability of the compound in rat liver microsomes assessed as compound degradation at 1 uM preincubated for 5 mins followed by NADPH addition and measured after 1 hr by LC-MS/MS analysis
Format: ADME, Microsome
condition details: read-out: Drug degradation
observed property: metabolised at 1 h, 1 µM (%)

N=C(N)NCCC[C@H](NC(=O)c1ccc(C(c2ccccc2)c2ccccc2)s1)C(=O)O = 60
Cc1cc(C(c2ccccc2)c2ccccc2)sc1C(=O)N[C@@H](CCCNC(=N)N)C(=O)O = 40

====

assay info: Elimination half-life in Wistar rat at 0.5 mg/kg, iv by LC-MS/MS analysis
Format: ADME, organism-based
condition details: in vivo, read-out: beta t1/2
# maps each entry to its half-life
observed property: half-life

N=C(N)NCCC[C@H](NC(=O)c1ccc(C(c2ccc(Cl)cc2)c2ccc(Cl)cc2)s1)C(=O)O = 61 min
N=C(N)NCCC[C@H](NC(=O)c1ccc(C(c2ccccc2)c2ccccc2)s1)C(=O)O = 32 min

====

assay info: AUC (0 to 8 hrs) in Wistar rat at 10 mg/kg, po by LC-MS/MS analysis
Assay type: ADME, organism-based
Design: dose 10 mg/kg, time < 8 hr, route oral
condition details: in vivo
observed property: AUC(0-t) at 8 h (ng·h/mL)

Cc1cc(C(c2ccc(Cl)cc2)c2ccc(Cl)cc2)sc1C(=O)N[C@@H](CCCNC(=N)N)C(=O)O = 478
Cc1cc(C(c2ccccc2)c2ccccc2)sc1C(=O)N[C@@H](CCCNC(=N)N)C(=O)O = 90
N=C(N)NCCC[C@H](NC(=O)c1ccc(C(c2ccc(Cl)cc2)c2ccc(Cl)cc2)s1)C(=O)O = 814
N=C(N)NCCC[C@H](NC(=O)c1ccc(C(c2ccccc2)c2ccccc2)s1)C(=O)O = 436

====

assay info: Clearance in Wistar rat at 1 mg/kg, iv by LC-MS/MS analysis
Assay type: ADME, organism-based
condition details: in vivo
observed property: clearance (mL/min/kg)

Cc1cc(C(c2ccc(Cl)cc2)c2ccc(Cl)cc2)sc1C(=O)N[C@@H](CCCNC(=N)N)C(=O)O = 4.4
Cc1cc(C(c2ccccc2)c2ccccc2)sc1C(=O)N[C@@H](CCCNC(=N)N)C(=O)O = 18
